Test: physchem
Conditions: organic solvent or mixture, thermodynamic from solid
Classify as follows. Reported solubility greater than or equal to 10 mM: criterion met. Reported solubility below: criterion not met.

Form field: solubility at least 10 mM? Entry: Cc1cc(=O)n(C)c2c3c4c(cc12)c(C)cc(=O)n4CO3 [DNM, deoxynybomycin]
criterion not met

----------
Reported Solubility in pH 7.4 PBS values for the following compounds.
Experiment: physchem
Details: pH 7.4 PBS; three replicates ± SEM
Use μM as the unit, but write only the number.

| SAMPLE_SMILES | Solubility in pH 7.4 PBS [μM] |
| --- | --- |
| CCc1cc(=O)n(C)c2c3c4c(cc12)c(CC)cc(=O)n4CO3 | 48 |
| CCn1c(=O)cc(C)c2cc3c(C)cc(=O)n4c3c(c21)OC4 | 121 |
| Cc1cc(=O)n(C)c2c3c4c(cc12)c(C)cc(=O)n4CO3 | 9 |

Recorded Solubility in pH 7.4 PBS for CCc1cc(=O)n(C)c2c3c4c(cc12)c(C)cc(=O)n4CO3 , please?
53

Ok, now CCCn1c(=O)cc(C)c2cc3c(C)cc(=O)n4c3c(c21)OC4
68

CCc1cc(=O)n2c3c(c4c(cc13)c(C)cc(=O)n4C)OC2 ?
27

----------
Test system: MRSA clinical isolate SAU.496
Test: microbe, parasite or virus in culture
Format: cell-based, S. aureus
Conditions: Staphylococcus aureus, read-out: MIC
QUANTITY_KIND: MIC (µg/mL)
Please give a number only; it is taken to be in µg/mL.

| SAMPLE_SMILES | QUANTITY_KIND | UNIT_ABBREV | ENDPOINT_RESULT |
| --- | --- | --- | --- |
| CCn1c(=O)cc(C)c2cc3c(C)cc(=O)n4c3c(c21)OC4 | MIC | µg/mL | 0.125 |

Which MIC is listed for CCCn1c(=O)cc(C)c2cc3c(C)cc(=O)n4c3c(c21)OC4 ?
0.25

Okay, and Cc1cc(=O)n(C)c2c3c4c(cc12)c(C)cc(=O)n4CO3 ?
0.063

----------
# MTD per entry
Assay: in vivo
Settings: female, C57BL/6, mouse, po

| SAMPLE_SMILES | ENDPOINT_RESULT |
| --- | --- |
| CCn1c(=O)cc(C)c2cc3c(C)cc(=O)n4c3c(c21)OC4 | > 50 mg/kg |

Consider the record given below.
Quick one: MTD for Cc1cc(=O)n(C)c2c3c4c(cc12)c(C)cc(=O)n4CO3 ?
> 50 mg/kg

----------
Assay: physchem
Details: pH 7.4, aqueous buffer, thermodynamic from solid
QUANTITY_KIND: solubility at 1 h

Give its solubility at 1 h value. Item: CCCc1cc(=O)n(C)c2c3c4c(cc12)c(CCC)cc(=O)n4CO3 [Compound 14]
< 1 µM

----------
Experiment: physchem
Conditions: organic solvent or mixture, thermodynamic from solid
Class (required): determined from solubility; valid ranges are lower band = under 5 mM, central band = from 5 mM up to 20 mM, upper band = 20 mM and over

Worked set:
| COMPOUND | GROUP |
| --- | --- |
| CCCc1cc(=O)n(C)c2c3c4c(cc12)c(C)cc(=O)n4CO3 [Compound 7] | central band |
| CCCCCn1c(=O)cc(C)c2cc3c(C)cc(=O)n4c3c(c21)OC4 [Compound 9] | upper band |
| CCCc1cc(=O)n2c3c(c4c(cc13)c(C)cc(=O)n4C)OC2 [Compound 6] | central band |
| CCCc1cc(=O)n(C)c2c3c4c(cc12)c(CCC)cc(=O)n4CO3 [Compound 14] | central band |
| Cc1cc(=O)n2c3c(c4c(cc13)c(C)cc(=O)n4CC(C)C)OC2 [Compound 11] | central band |
| CCc1cc(=O)n(C)c2c3c4c(cc12)c(C)cc(=O)n4CO3 [Compound 4] | lower band |
| CCc1cc(=O)n(C)c2c3c4c(cc12)c(CC)cc(=O)n4CO3 [Compound 13] | central band |
| CCn1c(=O)cc(C)c2cc3c(C)cc(=O)n4c3c(c21)OC4 [DNM-2] | lower band |

# next compound below
Band for CCCCCCn1c(=O)cc(C)c2cc3c(C)cc(=O)n4c3c(c21)OC4 [Compound 10] ?
upper band

----------
This section presents compounds with their documented MIC values.
System: MRSA clinical isolate SAU.495
Assay: microbe, parasite or virus in culture
Format: cell-based, S. aureus
Conditions: Staphylococcus aureus, read-out: MIC
Give the value in µg/mL but do not write µg/mL after it.

These recorded examples may help you get a feel for the data.
| COMPOUND | TARGET_SYSTEM | MIC [µg/mL] |
| --- | --- | --- |
| Cc1cc(=O)n(C)c2c3c4c(cc12)c(C)cc(=O)n4CO3 [DNM, deoxynybomycin] | MRSA clinical isolate SAU.495 | 0.063 |
| CCCn1c(=O)cc(C)c2cc3c(C)cc(=O)n4c3c(c21)OC4 [DNM-8] | MRSA clinical isolate SAU.495 | 0.25 |

Now for a further compound.
Recorded MIC for CCn1c(=O)cc(C)c2cc3c(C)cc(=O)n4c3c(c21)OC4 [DNM-2] , please?
0.125

----------
# Lookup of reported solubility keyed by entry
Test: physchem
Details: organic solvent or mixture, thermodynamic from solid
Expressed in mM, but write only the number.

Completed entries (count: 4):
| MOLECULE | ENDPOINT_RESULT |
| --- | --- |
| Cc1cc(=O)n(C)c2c3c4c(cc12)c(C)cc(=O)n4C(C)O3 (centres unmarked) [Compound 5] | 3.4 |
| CCc1cc(=O)n2c3c(c4c(cc13)c(C)cc(=O)n4C)OC2 [DNM-3] | 1.3 |
| CCCCn1c(=O)cc(CCC)c2cc3c(CCC)cc(=O)n4c3c(c21)OC4 [Compound 15] | 4.2 |
| Cc1cc(=O)n2c3c(c4c(cc13)c(C)cc(=O)n4CC(C)(C)C)OC2 [Compound 12] | 38.7 |

// below: solubility requested for another molecule
# query: solubility of entry CCCn1c(=O)cc(C)c2cc3c(C)cc(=O)n4c3c(c21)OC4 [DNM-8]
11.3
